Test system: female stress-derived axillary odor
Assay: Cross-adaptation of female stress-derived axillary odor (odor panel, magnitude estimation of perceived intensity); further: key: best: Best = Superior Cross-Adaptation; good: Good = Adequate Cross-Adaptation; poor: Poor = Ineffective Cross-Adaptation
Assay type: in vivo, human
Settings: female stress-derived odor perceived by men
Quantity kind: Magnitude of Reduction of Intensity of Female Stress-Derived Odor (FSDO), Males

Sample CC(=O)O[C@@H]1C[C@H](C)CC[C@H]1C(C)C [Menthyl Acetate rf, 4-menthyl-3-yl acetate] — what was its Magnitude of Reduction of Intensity of Female Stress-Derived Odor (FSDO), Males? good

Sample `Cc1ccc2c(c1)OCC(=O)CO2` — what was its Magnitude of Reduction of Intensity of Female Stress-Derived Odor (FSDO), Males? good

Sample CC(C)=CCCC(C)CCO (stereo not drawn) — what was its Magnitude of Reduction of Intensity of Female Stress-Derived Odor (FSDO), Males? good

Sample CC(=O)C=CC1C(C)=CCCC1(C)C (stereo not drawn) — what was its Magnitude of Reduction of Intensity of Female Stress-Derived Odor (FSDO), Males? good

Sample CC(C)=CC1CC(C)CCO1 (stereo not drawn) [Rose Oxide hc] — what was its Magnitude of Reduction of Intensity of Female Stress-Derived Odor (FSDO), Males? good

Sample CCCCCCCC1CCC(=O)O1 (stereo not drawn) — what was its Magnitude of Reduction of Intensity of Female Stress-Derived Odor (FSDO), Males? good

Further cases:
Sample CC(C)(O)CCCC1=CCC(C=O)CC1 (stereo not drawn) — what was its Magnitude of Reduction of Intensity of Female Stress-Derived Odor (FSDO), Males? good

Sample `O=C1CCCCCCCCCCCCCCO1` — what was its Magnitude of Reduction of Intensity of Female Stress-Derived Odor (FSDO), Males? good

Sample `CC(C)=CCC(C)(C)C(=O)C(C)C` — what was its Magnitude of Reduction of Intensity of Female Stress-Derived Odor (FSDO), Males? best

Sample C=CCOC(=O)COC1CCCCC1 [Isoananat, allyl cyclohexyloxyacetate] — what was its Magnitude of Reduction of Intensity of Female Stress-Derived Odor (FSDO), Males? good

Sample `CO[C@]1(C)CC[C@@]23C[C@@H]1C(C)(C)[C@@H]2CC[C@H]3C` — what was its Magnitude of Reduction of Intensity of Female Stress-Derived Odor (FSDO), Males? good

====

Test system: female stress-derived axillary odor
Assay: Cross-adaptation of female stress-derived axillary odor (odor panel, magnitude estimation of perceived intensity); further: key: best: Best = Superior Cross-Adaptation; good: Good = Adequate Cross-Adaptation; poor: Poor = Ineffective Cross-Adaptation
Assay type: in vivo, human
Conditions: female stress-derived odor perceived by men
Quantity kind: Magnitude of Reduction of Intensity of Female Stress-Derived Odor (FSDO), Males

Sample CC=CC(=O)C1C(C)=CCCC1(C)C (stereo not shown) — what was its Magnitude of Reduction of Intensity of Female Stress-Derived Odor (FSDO), Males? poor

Sample CCOc1cc(C=O)ccc1O [Ethyl Vanillin, 3-Ethoxy-4-hydroxybenzaldehyde] — what was its Magnitude of Reduction of Intensity of Female Stress-Derived Odor (FSDO), Males? best

Sample CC1CC(C)(c2ccccc2)OC(C)O1 (stereo not shown) — what was its Magnitude of Reduction of Intensity of Female Stress-Derived Odor (FSDO), Males? best

Sample `COC(=O)c1c(C)cc(O)c(C)c1O` — what was its Magnitude of Reduction of Intensity of Female Stress-Derived Odor (FSDO), Males? poor
